Biological target: Ubiquitin-conjugating enzyme E2 N (Homo sapiens);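 note: Dose-response confirmation in a TR-FRET assay detecting UBC13-driven polyubiquitin chain formation, inhibition measured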
Sequence (P61088 whole entry): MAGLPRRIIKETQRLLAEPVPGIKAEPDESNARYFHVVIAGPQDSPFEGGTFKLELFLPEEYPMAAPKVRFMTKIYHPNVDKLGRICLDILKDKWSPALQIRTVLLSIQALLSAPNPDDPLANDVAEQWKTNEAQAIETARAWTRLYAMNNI
Type: functional
Activity calls are given as the source filed them.
The reply should be one of these categories: YES (active), NO (inactive)

Q: Which result was noted for this molecule in the test: `CCCCn1c(-c2cccs2)nc2nc3ccccc3nc21`
Result: NO

Q: State the result this test recorded for `COc1ccc(CC(=O)N(C)CC(=O)Nc2ccccc2Cl)cc1S(=O)(=O)N1CCOCC1` .
Result: NO

Q: What classification did CN(C)CC(O)COc1ccc(C(C)(C)c2ccc(OCC(O)CN(C)C)cc2)cc1 (configuration not stated) end up with in this test?
Result: NO

Q: Which outcome was entered for the molecule CCNC(C(=O)c1c[nH]c2c(CC)cccc12)c1ccccc1 (configuration not stated) in this test?
Result: NO

Q: Could you check what this test reported for Cc1ccc(C)c(OCC(O)CN2CCN(CCN3C(=O)c4cccc5cccc(c45)C3=O)CC2)c1 (configuration not stated) ?
Result: YES

Q: Answer briefly: the call reported for `COc1ccc(-c2noc(CCC(=O)NCCCN3CCC(Cc4ccccc4)CC3)n2)cc1` in this assay.
Result: NO

Q: For this molecule, state the assay outcome: `N=C(N)c1ccc(/C=C/c2ccc(C(=N)N)cc2O)cc1`
Result: YES

Q: What call does the record list for `CC[C@@H](C)[C@@H]1CN([C@@H](C)CN2CCC[C@H]2CN2C(N)=NC[C@H]2C(C)C)C(=N)N1CCc1ccc(Cl)c(Cl)c1` ?
Result: NO

Q: Please share the test call associated with `O=C(NN1C(=O)c2ccc3c4c(ccc(c24)C1=O)CC3)c1ccc(Br)cc1` .
Result: NO

Q: Which outcome was entered for the molecule `Cc1cc(C)c2nc(-c3ccccn3)cc(C(=O)n3cccn3)c2c1` in this test?
Result: NO

Q: Dear colleague, could you share the recorded outcome for `CN1[C@@H]2CC[C@H]1C[C@@H](OC1c3ccccc3CCc3ccccc31)C2` when you have a moment?
Result: NO

Q: Record request — test call for `O=C1c2cccc3cccc(c23)C(=O)N1Nc1ccccc1`
Result: NO

---

Target: Caspase-6 (Homo sapiens)
Sequence (P55212 24-179 limits assumed): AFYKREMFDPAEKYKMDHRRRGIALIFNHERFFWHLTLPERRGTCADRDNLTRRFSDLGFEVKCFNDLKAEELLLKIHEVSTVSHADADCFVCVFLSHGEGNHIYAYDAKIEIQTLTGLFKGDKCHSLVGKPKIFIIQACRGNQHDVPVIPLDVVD
Sequence (P55212 194-293 limits assumed): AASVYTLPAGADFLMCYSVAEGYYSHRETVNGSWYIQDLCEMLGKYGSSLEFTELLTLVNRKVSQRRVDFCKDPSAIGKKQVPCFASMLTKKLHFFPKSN
Assay: human caspase-6 inhibitors, dose response, biochemical, VEID-R110 fluorescence, cherry-pick (AID 720632)
Calls of active or inactive are those of the source.
AC50 values for the compounds below.

Worked examples follow.
- smiles.record: "O=C(O)COn1c(-c2ccccc2)nc2ccc([N+](=O)[O-])cc21"
  assay.system: "Caspase-6 (Homo sapiens)"
  AC50: "5.23 µM (active)"
- smiles.record: "O=C(Cn1cnc([N+](=O)[O-])n1)c1ccc(O)c(O)c1"
  assay.system: "Caspase-6 (Homo sapiens)"
  AC50: "43.9 µM (active)"
- smiles.record: "O=C(COC(=O)c1ccc([N+](=O)[O-])s1)Nc1ccccc1"
  assay.system: "Caspase-6 (Homo sapiens)"
  AC50: "2.49 µM (active)"

Moving on to another compound below.
Sure, the documented AC50 for `O=S(=O)(Nc1cc(Sc2nc[nH]n2)c(O)c2ccccc12)c1ccccc1` is 0.911 µM (active)
